Catalogue of binders with associated koff
# target entity: T1, Human ST2 (human, UniProt Q01638 19-328, limits assumed)
# T1 construct: also called human ST2 protein; Interleukin 1 receptor-like 1
# T1 sequence (looked up): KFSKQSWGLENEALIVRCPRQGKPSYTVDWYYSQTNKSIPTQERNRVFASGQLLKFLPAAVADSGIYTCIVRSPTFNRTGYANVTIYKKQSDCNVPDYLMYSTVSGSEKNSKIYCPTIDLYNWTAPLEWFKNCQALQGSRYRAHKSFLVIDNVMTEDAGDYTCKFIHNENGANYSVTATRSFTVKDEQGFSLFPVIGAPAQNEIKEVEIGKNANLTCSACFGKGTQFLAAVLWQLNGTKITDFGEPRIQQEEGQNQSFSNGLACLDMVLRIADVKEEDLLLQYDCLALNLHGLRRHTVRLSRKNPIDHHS
# test method notes: SPR (Carterra), antibody immobilized, ST2 analyte
measure name: koff (s⁻¹)

[[record]]
binder = "Human ST2 IgG1 Antibody 33 (antibody, V domains shown, IgG1; also called ST2 Antibody 33) VH: QVQLVQSGAEVKKPGSSVKVSCKASGDTFDTYAISWVRQAPGQGLEWMGGIIPIFGTANYAQKFQGRVTITADESTSTAYMELSSLRSEDTAVYYCARSRGRGYSYGSGLFDYWGQGTLVTVSS VL: DIVMTQSPLSLPVTPGEPASISCRSSESLLITNGFNYIDWYLQKPGQSPQLLIYLGSNRAAGVPDRFSGSGSGTDFTLKISRVEAEDVGVYYCMQALQTPITFGQGTKVEIKR"
measure_name = "koff"
uom = "s⁻¹"
numeric_readout = 0.13

[[record]]
binder = "Human ST2 IgG1 Antibody 83 (antibody, V domains shown, IgG1; also called ST2 Antibody 83) VH: EVQLLESGGGLVKPGGSLRLSCAASGFTFSSYWMSWVRQAPGKGLEWVSAIGTAGDTYYPGSVKGRFTISRDDSKNTLYLQMNSLKTEDTAVYYCAILRRDKVWPFDYWGQGTLVTVSS VL: DIQMTQSPSSLSASVGDRVTITCRASQSISSHLHWYQQKPGKAPKLLIYAASSLQSGVPSRFSGSGSGTDFTLTISSLQPEDFATYYCQQSYSSPVTFGGGTKVEIKR"
measure_name = "koff"
uom = "s⁻¹"
numeric_readout = 0.018

